Test: Pharmacokinetics of seven compounds in rat plasma after oral administration of RAF and SAF extracts (UHPLC-MS/MS)
Assay type: in vivo, male Sprague-Dawley rats
Conditions: oral SAF extract 12 g kg^−1, n = 6
MEASURED PARAMETER: C (max) (µg/mL)

[1] O=C(C=Cc1ccc(O)c(O)c1)OC1CC(O)(C(=O)O)CC(O)C1OC(=O)C=Cc1ccc(O)c(O)c1 (stereo not drawn) [Isochlorogenic acid B, isochlorogenic acid B]
[2] O=C(C=Cc1ccc(O)c(O)c1)OC1CC(O)(C(=O)O)CC(O)C1OC(=O)C=Cc1ccc(O)c(O)c1 (stereo not drawn) [Isochlorogenic acid C, isochlorogenic acid C]
Could you kindly indicate whether 1 or 2 has the higher C (max) value? Give the label of your selection.
2

###

Assay: Pharmacokinetics of seven compounds in rat plasma after oral administration of RAF and SAF extracts (UHPLC-MS/MS)
Type: in vivo, male Sprague-Dawley rats
Conditions: male, Sprague-Dawley, rat, plasma, po, 12 g/kg, oral SAF extract 12 g kg^−1, n = 6
MEASURED PARAMETER: Tmax (min)

1) O=C(C=Cc1ccc(O)c(O)c1)OC1CC(O)(C(=O)O)CC(OC(=O)C=Cc2ccc(O)c(O)c2)C1O (stereo not drawn) [Isochlorogenic acid A, isochlorogenic acid A]; 6

[a] COc1ccc(C[C@H]2COC(=O)[C@@H]2Cc2ccc(O[C@@H]3O[C@H](CO)[C@@H](O)[C@H](O)[C@H]3O)c(OC)c2)cc1OC [Arctiin, arctiin]
[b] COc1cc(C[C@H]2C(=O)OC[C@@H]2Cc2ccc(OC)c(OC)c2)ccc1O [Arctigenin, arctigenin]
// compare measured Tmax, left a , right b , return larger Refer to your chosen item by its label in the answer.
b
(b: 520 min, a: 4.32 min)

###

Test: Pharmacokinetics of seven compounds in rat plasma after oral administration of RAF and SAF extracts (UHPLC-MS/MS)
Assay type: in vivo, male Sprague-Dawley rats
Settings: male, Sprague-Dawley, rat, plasma, po, 12 g/kg, oral SAF extract 12 g kg^−1, n = 6
MEASURED PARAMETER: AUC(0-inf) (ng·h/mL)

[a] O=C(C=Cc1ccc(O)c(O)c1)OC1C(O)CC(O)(C(=O)O)CC1O (stereo not shown) [Cryptochlorogenic acid, cryptochlorogenic acid]
[b] O=C(/C=C/c1ccc(O)c(O)c1)O[C@@H]1C[C@](O)(C(=O)O)C[C@@H](O)[C@H]1O [Chlorogenic acid, chlorogenic acid]
[c] COc1ccc(C[C@H]2COC(=O)[C@@H]2Cc2ccc(O[C@@H]3O[C@H](CO)[C@@H](O)[C@H](O)[C@H]3O)c(OC)c2)cc1OC [Arctiin, arctiin]
[d] O=C(C=Cc1ccc(O)c(O)c1)OC1CC(O)(C(=O)O)CC(OC(=O)C=Cc2ccc(O)c(O)c2)C1O (stereo not shown) [Isochlorogenic acid A, isochlorogenic acid A]
List the compounds shown above again, sorted by falling AUC(0-inf) values. # answer = labels listed in requested order
c, b, a, d

###

Test: Pharmacokinetics of seven compounds in rat plasma after oral administration of RAF and SAF extracts (UHPLC-MS/MS)
Format: in vivo, male Sprague-Dawley rats
Settings: male, Sprague-Dawley, rat, plasma, po, 12 g/kg, oral RAF extract 12 g kg^−1, n = 6
MEASURED PARAMETER: half-life (h)

[P] O=C(C=Cc1ccc(O)c(O)c1)OC1C(O)CC(O)(C(=O)O)CC1O (stereo not shown) [Cryptochlorogenic acid, cryptochlorogenic acid]
[Q] COc1cc(C[C@H]2C(=O)OC[C@@H]2Cc2ccc(OC)c(OC)c2)ccc1O [Arctigenin, arctigenin]
[R] COc1ccc(C[C@H]2COC(=O)[C@@H]2Cc2ccc(O[C@@H]3O[C@H](CO)[C@@H](O)[C@H](O)[C@H]3O)c(OC)c2)cc1OC [Arctiin, arctiin]
Consider the molecules listed above. Rank them by half-life in ascending numerical order. List the labels in the requested order.
R, Q, P

###

Test: Pharmacokinetics of seven compounds in rat plasma after oral administration of RAF and SAF extracts (UHPLC-MS/MS)
Type: in vivo, male Sprague-Dawley rats
Conditions: oral RAF extract 12 g kg^−1, n = 6
MEASURED PARAMETER: C (max) (ng/mL)

1) O=C(C=Cc1ccc(O)c(O)c1)OC1CC(O)(C(=O)O)CC(OC(=O)C=Cc2ccc(O)c(O)c2)C1O (stereo not drawn) [Isochlorogenic acid A, isochlorogenic acid A]; 99.05

[A] O=C(/C=C/c1ccc(O)c(O)c1)O[C@@H]1C[C@](O)(C(=O)O)C[C@@H](O)[C@H]1O [Chlorogenic acid, chlorogenic acid]
[B] COc1ccc(C[C@H]2COC(=O)[C@@H]2Cc2ccc(O[C@@H]3O[C@H](CO)[C@@H](O)[C@H](O)[C@H]3O)c(OC)c2)cc1OC [Arctiin, arctiin]
Min C (max)? A | B Identify your pick by its label.
A

###

Assay: Pharmacokinetics of seven compounds in rat plasma after oral administration of RAF and SAF extracts (UHPLC-MS/MS)
Format: in vivo, male Sprague-Dawley rats
Conditions: oral SAF extract 12 g kg^−1, n = 6
MEASURED PARAMETER: C (max) (ng/mL)

1) COc1cc(C[C@H]2C(=O)OC[C@@H]2Cc2ccc(OC)c(OC)c2)ccc1O; 600.8

[1] COc1ccc(C[C@H]2COC(=O)[C@@H]2Cc2ccc(O[C@@H]3O[C@H](CO)[C@@H](O)[C@H](O)[C@H]3O)c(OC)c2)cc1OC
[2] O=C(/C=C/c1ccc(O)c(O)c1)O[C@@H]1C[C@](O)(C(=O)O)C[C@@H](O)[C@H]1O
[3] O=C(C=Cc1ccc(O)c(O)c1)OC1C(O)CC(O)(C(=O)O)CC1O (stereo not shown)
Order the records, beginning with the lowest C (max) and ending with the highest. The reply should contain the labels ordered as requested.
3, 2, 1
(3: 116.16 ng/mL, 2: 303.7 ng/mL, 1: 605.7 ng/mL)

###

Experiment: Pharmacokinetics of seven compounds in rat plasma after oral administration of RAF and SAF extracts (UHPLC-MS/MS)
Format: in vivo, male Sprague-Dawley rats
Conditions: male, Sprague-Dawley, rat, plasma, po, 12 g/kg, oral RAF extract 12 g kg^−1, n = 6
MEASURED PARAMETER: Tmax (min)

Worked set:
1. O=C(/C=C/c1ccc(O)c(O)c1)O[C@@H]1C[C@](O)(C(=O)O)C[C@@H](O)[C@H]1O; 52.5
2. COc1ccc(C[C@H]2COC(=O)[C@@H]2Cc2ccc(O[C@@H]3O[C@H](CO)[C@@H](O)[C@H](O)[C@H]3O)c(OC)c2)cc1OC; 9.12

[a] O=C(C=Cc1ccc(O)c(O)c1)OC1CC(O)(C(=O)O)CC(OC(=O)C=Cc2ccc(O)c(O)c2)C1O (stereo not drawn)
[b] O=C(C=Cc1ccc(O)c(O)c1)OC1C(O)CC(O)(C(=O)O)CC1O (stereo not drawn)
[c] COc1cc(C[C@H]2C(=O)OC[C@@H]2Cc2ccc(OC)c(OC)c2)ccc1O
[d] O=C(C=Cc1ccc(O)c(O)c1)OC1CC(O)(C(=O)O)CC(O)C1OC(=O)C=Cc1ccc(O)c(O)c1 (stereo not drawn)
List these items ordered by Tmax, big to small. // respond by listing labels in the order requested
c, a, b, d
(c: 540 min, a: 47.5 min, b: 25.9 min, d: 7.5 min)

Data credit: paper PMC9513756
